Examples of compounds with documented Daily dose required to reach below the limit of detection on day 4 post-infection follow.
System: SARS-CoV-2 B.1.351 (Beta variant)
Format: in vivo, BALB/c mice
Conditions: mouse, in vivo
Experimental Readout: Daily dose required to reach below the limit of detection on day 4 post-infection (mg/kg)

Compound	Observed
CCCCCCCCCCCCCCCCCCOC[C@H](COP(=O)(O)OC[C@H]1O[C@@](C#N)(c2ccc3c(N)ncnn23)[C@H](O)[C@@H]1O)OCc1ccccc1	27
CC(C)C(=O)OC[C@H]1O[C@@](C#N)(c2ccc3c(N)ncnn23)[C@H](O)[C@@H]1O [Obeldesivir GS-5245, reference compound]	60
CC(C)C(=O)OC[C@H]1O[C@@H](n2ccc(NO)nc2=O)[C@H](O)[C@@H]1O [EIDD-2801, reference compound]	200
CCCCCCCCCCCCCCCCCCOCC(COP(=O)(O)OC[C@H]1O[C@@](C#N)(c2ccc3c(N)ncnn23)[C@H](O)[C@@H]1O)OCc1ccc(C#N)cc1 (stereo partly shown)	27
